test: Solubility, automated shake flask method with UV quantitation; assay type: physicochemical; settings: aqueous buffer, thermodynamic from solid; 0.1N NaOH, 4 h, room temperature
ASSAY METRIC: solubility at 4 h

Record CO[C@H]1COCC[C@H]1NC1CCN(C(=O)c2ncnc(NC[C@H]3CCC[C@@H](c4ccc(C)cc4)O3)c2C)CC1.O=C(O)CC(O)(CC(=O)O)C(=O)O [citrate salt 1] . Reported solubility at 4 h: > 1000 µg/mL

----------
assay: Solubility, automated shake flask method with UV quantitation; assay type: physicochemical; details: aqueous buffer, thermodynamic from solid; McIlvaine buffer pH 3.0, 6 h, room temperature
ASSAY METRIC: solubility at 6 h

Record CO[C@H]1COCC[C@H]1NC1CCN(C(=O)c2ncnc(NC[C@H]3CCC[C@@H](c4ccc(C)cc4)O3)c2C)CC1.O=C(O)CC(O)(CC(=O)O)C(=O)O [citrate salt 1] . Reported solubility at 6 h: > 1000 µg/mL

----------
experiment: Oral pharmacokinetics in rat; format: in vivo, Wistar(Han) rats; conditions: male, Wistar(Han), plasma, 20 umol/kg, oral dose 20 μmol/kg of compound I, mean values
ASSAY METRIC: Tmax (h)
Please reply with the bare figure in h and do not write the unit itself.

Record CO[C@H]1COCC[C@H]1NC1CCN(C(=O)c2ncnc(NC[C@H]3CCC[C@@H](c4ccc(C)cc4)O3)c2C)CC1 [compound I] . Reported Tmax: 1.5

----------
experiment: Oral pharmacokinetics in rat; assay type: in vivo, Wistar(Han) rats; details: male, Wistar(Han), plasma, 20 umol/kg, oral dose 20 μmol/kg of compound I, mean values
ASSAY METRIC: Cmax (nM)
Please reply with the bare figure in nM and do not write the unit itself.

Record CO[C@H]1COCC[C@H]1NC1CCN(C(=O)c2ncnc(NC[C@H]3CCC[C@@H](c4ccc(C)cc4)O3)c2C)CC1 . Reported Cmax: 580

----------
assay: Intravenous pharmacokinetics in minipig; assay type: in vivo, Göttingen Minipigs; details: both sexes, Göttingen, plasma, 5 umol/kg, IV dose 5 μmol/kg, mean values
ASSAY METRIC: clearance (mL/min/kg)
Please reply with the bare figure in mL/min/kg and do not write the unit itself.

Record CO[C@H]1COCC[C@H]1NC1CCN(C(=O)c2ncnc(NC[C@H]3CCC[C@@H](c4ccc(C)cc4)O3)c2C)CC1 [compound I] . Reported clearance: 20

----------
assay: Solubility, automated shake flask method with UV quantitation; assay type: physicochemical; conditions: Sörensen buffer, aqueous buffer, thermodynamic from solid; Sörensen pH 10, 4 h, room temperature
ASSAY METRIC: solubility at 4 h

Record CO[C@H]1COCC[C@H]1NC1CCN(C(=O)c2ncnc(NC[C@H]3CCC[C@@H](c4ccc(C)cc4)O3)c2C)CC1.O=C(O)CC(O)(CC(=O)O)C(=O)O [citrate salt 1] . Reported solubility at 4 h: > 1000 µg/mL

----------
assay: Oral pharmacokinetics in mouse; assay type: in vivo, BALB/c mice; conditions: female, BALB/c, plasma, 20 umol/kg, oral dose 20 μmol/kg, mean values
ASSAY METRIC: Tmax (h)
Please reply with the bare figure in h and do not write the unit itself.

Record CO[C@H]1COCC[C@H]1NC1CCN(C(=O)c2ncnc(NC[C@H]3CCC[C@@H](c4ccc(C)cc4)O3)c2C)CC1 . Reported Tmax: 1

----------
experiment: In vitro plasma protein binding (equilibrium dialysis), mouse; format: in vitro ADME; settings: pH 7.4, dialysis 2 hours at 37° C., read-out: Fraction bound (converted)
ASSAY METRIC: fraction unbound at 2 h, 1 μM

Record CO[C@H]1COCC[C@H]1NC1CCN(C(=O)c2ncnc(NC[C@H]3CCC[C@@H](c4ccc(C)cc4)O3)c2C)CC1 [compound I] . Reported fraction unbound at 2 h, 1 μM: 0.049

Origin of the recorded values: patent US10213428B2
